Tested on: Proteus morganii 1518
Catalogue of compounds with associated MIC
Output spec: scalar in µg/mL, unitless text.

CCN(CC)CCN(CC)c1nc2c([nH]1)c1c(O)c3c(O)c(C)c4c(c32)C(=O)[C@@](C)(O/C=C/[C@H](OC)[C@@H](C)[C@@H](OC(C)=O)[C@H](C)[C@H](O)[C@H](C)[C@@H](O)[C@@H](C)/C=C/C=C(/C)C(=O)N1)O4 [Verbindung 18]
4
CO[C@H]1/C=C/O[C@@]2(C)Oc3c(C)c(O)c4c(O)c(c5[nH]c(N(C)C6CCN(C)CC6)nc5c4c3C2=O)NC(=O)/C(C)=C\C=C\[C@H](C)[C@H](O)[C@@H](C)[C@@H](O)[C@@H](C)[C@H](OC(C)=O)[C@@H]1C [Verbindung 13]
16
C=CCN1CCN(c2nc3c([nH]2)c2c(O)c4c(O)c(C)c5c(c43)C(=O)[C@@](C)(O/C=C/[C@H](OC)[C@@H](C)[C@@H](OC(C)=O)[C@H](C)[C@H](O)[C@H](C)[C@@H](O)[C@@H](C)/C=C/C=C(/C)C(=O)N2)O5)CC1 [Verbindung 44]
8

Please turn your attention to the following entry.
The value of MIC recorded for CCN(CCO)c1nc2c([nH]1)c1c(O)c3c(O)c(C)c4c(c32)C(=O)[C@@](C)(O/C=C/[C@H](OC)[C@@H](C)[C@@H](OC(C)=O)[C@H](C)[C@H](O)[C@H](C)[C@@H](O)[C@@H](C)/C=C/C=C(/C)C(=O)N1)O4 [Verbindung 14] when tested on Proteus morganii 1518 reads 16
